- TARGET_SYSTEM: EGFR on the surface of human tumour cells (A431, H292) (human, UniProt P00533 25-1210)
- ASSAY_REMARKS: cell-based or functional assay
PROPERTY_NAME: H292 pEGFR IC50 (ELISA) (nM)

| BINDER | PROPERTY_NAME | READING |
| --- | --- | --- |
| E3-GS10-I1 pegylated, His-tagged (designed binder, 40 kDa branched PEG on the Cys of the C-terminal Cys tail, also called E3-GS10-I1-Cys (with his)) MGVSDVPRDLEVVAATPTSLLISWLPGKLRYQYYRITYGETGGNSPVQEFTVPHDLRTATISGLKPGVDYTITVYAVTNMMHVEYSEYPISINYRTEIDKGSGSGSGSGSGSGSGSGSGSVSDVPRDLEVVAATPTSLLISWSARLKVARYYRITYGETGGNSPVQEFTVPKNVYTATISGLKPGVDYTITVYAVTRFRDYQPISINYRTEIDKPCQHHHHHH | H292 pEGFR IC50 (ELISA) | 10 |
| E1-GS10-I1, His-tagged, non-pegylated (designed binder, bispecific EGFR/IGF-IR tandem of two 10Fn3 domains) MGVSDVPRDLEVVAATPTSLLISWVAGAEDYQYYRITYGETGGNSPVQEFTVPHDLVTATISGLKPGVDYTITVYAVTDMMHVEYTEHPISINYRTEIDKGSGSGSGSGSGSGSGSGSGSVSDVPRDLEVVAATPTSLLISWSARLKVARYYRITYGETGGNSPVQEFTVPKNVYTATISGLKPGVDYTITVYAVTRFRDYQPISINYRTEIDKPSQHHHHHH | H292 pEGFR IC50 (ELISA) | 30 |
| E1-GS10-I1 pegylated, His-tagged (designed binder, 40 kDa branched PEG on the Cys of the C-terminal Cys tail, also called E1-GS10-I1 (with PEG)) MGVSDVPRDLEVVAATPTSLLISWVAGAEDYQYYRITYGETGGNSPVQEFTVPHDLVTATISGLKPGVDYTITVYAVTDMMHVEYTEHPISINYRTEIDKGSGSGSGSGSGSGSGSGSGSVSDVPRDLEVVAATPTSLLISWSARLKVARYYRITYGETGGNSPVQEFTVPKNVYTATISGLKPGVDYTITVYAVTRFRDYQPISINYRTEIDKPCQHHHHHH | H292 pEGFR IC50 (ELISA) | 123 |
| E3-GS10-I1, non-pegylated (designed binder) VSDVPRDLEVVAATPTSLLISWLPGKLRYQYYRITYGETGGNSPVQEFTVPHDLRTATISGLKPGVDYTITVYAVTNMMHVEYSEYPISINYRTEIDKGSGSGSGSGSGSGSGSGSGSVSDVPRDLEVVAATPTSLLISWSARLKVARYYRITYGETGGNSPVQEFTVPKNVYTATISGLKPGVDYTITVYAVTRFRDYQPISINYRTEIDKPSQ | H292 pEGFR IC50 (ELISA) | 7 |
